test system: human MOR (Homo sapiens)
Construct: expressed in transfected cells; cell lines provided by Professor Lawrence Toll
assay text: [35S]-GTPγS binding stimulation, MOR
Assay type: biochemical
study conditions: versus 10 µM standard agonist DAMGO; mean (SEM); * n = 2; dns = average maximal stimulation <10% at up to 10 µM
quantity kind: Emax (%)
Please reply with the bare figure in % and do not write the unit itself.

Please review the entries below; each comes with its answer.
smiles code | measurement unit | Emax
Cc1cc(O)cc(C)c1C[C@H](N)C(=O)N1CCc2ccc(Cc3ccc4ccccc4c3)cc2C1 | % | 51
Cc1cccc(Cc2ccc3c(c2)CN(C(=O)[C@@H](N)Cc2c(C)cc(O)cc2C)CC3)c1C | % | 34
Cc1cc(O)cc(C)c1C[C@H](N)C(=O)N1CCc2ccc(Cc3cccc(O)c3)cc2C1 | % | 81
Cc1cc(O)cc(C)c1C[C@H](N)C(=O)N1CCc2ccc(Cc3cccc4ncccc34)cc2C1 | % | 31
Cc1cc(O)cc(C)c1C[C@H](N)C(=O)N1CCc2ccc(Cc3cccc4cccnc34)cc2C1 | % | 63

Which Emax reading was recorded for the compound Cc1cc(O)cc(C)c1C[C@H](N)C(=O)N1CCc2ccc(Cc3ccccc3C#N)cc2C1 ?
31

Same read-out for Cc1cc(O)cc(C)c1C[C@H](N)C(=O)N1CCc2ccc(CN3CCCCC3)cc2C1 ?
34

Same read-out for Cc1cc(O)cc(C)c1C[C@H](N)C(=O)N1CCc2ccc(Cc3ccncc3)cc2C1 ?
28

Same read-out for Cc1cc(O)cc(C)c1C[C@H](N)C(=O)N1CCc2ccc(CN3Cc4ccccc4C3)cc2C1 ?
63

Same read-out for Cc1cc(O)cc(C)c1C[C@H](N)C(=O)N1CCc2ccc(Cc3ccnc4ccccc34)cc2C1 ?
45

###

test system: human DOR (Homo sapiens, UniProt P41143)
Construct: expressed in transfected cells; cell lines provided by Professor Lawrence Toll
assay text: [35S]-GTPγS binding stimulation, DOR
Assay type: biochemical
study conditions: versus 10 µM standard agonist DPDPE; mean (SEM); * n = 2; dns = average maximal stimulation <10% at up to 10 µM
quantity kind: % Stimulation DOR

Please review the entries below; each comes with its answer.
smiles code | % Stimulation DOR
Cc1cccc(Cc2ccc3c(c2)CN(C(=O)[C@@H](N)Cc2c(C)cc(O)cc2C)CC3)c1C | dns *
Cc1cc(O)cc(C)c1C[C@H](N)C(=O)N1CCc2ccc(Cc3cccc4ncccc34)cc2C1 | dns *
Cc1cc(O)cc(C)c1C[C@H](N)C(=O)N1CCc2ccc(Cc3ccnc4ccccc34)cc2C1 | dns *
Cc1cc(O)cc(C)c1C[C@H](N)C(=O)N1CCc2ccc(Cc3cncc4ccccc34)cc2C1 | 39 (7) %
Cc1cc(O)cc(C)c1C[C@H](N)C(=O)N1CCc2ccc(CN3CCCCC3)cc2C1 | dns
Cc1cc(O)cc(C)c1C[C@H](N)C(=O)N1CCc2ccc(CN3CCCc4ccccc43)cc2C1 | dns *

Which % Stimulation DOR reading was recorded for the compound COc1cccc(Cc2ccc3c(c2)CN(C(=O)[C@@H](N)Cc2c(C)cc(O)cc2C)CC3)c1 ?
dns

Same read-out for COc1ccccc1Cc1ccc2c(c1)CN(C(=O)[C@@H](N)Cc1c(C)cc(O)cc1C)CC2 ?
dns *

Same read-out for Cc1cc(O)cc(C)c1C[C@H](N)C(=O)N1CCc2ccc(Cc3cccc4cccnc34)cc2C1 ?
23 (4) %

###

test system: human DOR (Homo sapiens, UniProt P41143)
Construct: expressed in transfected cells; cell lines provided by Professor Lawrence Toll
assay text: [35S]-GTPγS binding stimulation, DOR
Format: biochemical
study conditions: versus 10 µM standard agonist DPDPE; mean (SEM); * n = 2; dns = average maximal stimulation <10% at up to 10 µM
quantity kind: % Stimulation DOR

Please review the entries below; each comes with its answer.
molecule | % Stimulation DOR
Cc1cc(O)cc(C)c1C[C@H](N)C(=O)N1CCc2ccc(CN3CCc4ccccc43)cc2C1 [Compound 8y] | dns *
Cc1cc(O)cc(C)c1C[C@H](N)C(=O)N1CCc2ccc(CN3CCc4ccccc4C3)cc2C1 [Compound 8w] | dns *
Cc1cc(O)cc(C)c1C[C@H](N)C(=O)N1CCc2ccc(CN3CCOCC3)cc2C1 [Compound 8n] | dns
Cc1cc(O)cc(C)c1C[C@H](N)C(=O)N1CCc2ccc(Cc3ccncc3)cc2C1 [Compound 8k] | dns
Cc1cc(O)cc(C)c1C[C@H](N)C(=O)N1CCc2ccc(Cc3ccccc3C(F)(F)F)cc2C1 [Compound 8c] | 24 (3) %

Lab request: please report % Stimulation DOR under test system human DOR (Homo sapiens, UniProt P41143) for Cc1cc(O)cc(C)c1C[C@H](N)C(=O)N1CCc2ccc(Cc3cccc4ccccc34)cc2C1 [Compound 8o]
dns

Same read-out for Cc1cc(O)cc(C)c1C[C@H](N)C(=O)N1CCc2ccc(Cc3cccnc3)cc2C1 [Compound 8j] ?
dns

Same read-out for Cc1cc(O)cc(C)c1C[C@H](N)C(=O)N1CCc2ccc(Cc3ccc4ccccc4c3)cc2C1 [Compound 8p] ?
dns

###

Record type: Ki measurement. Applies to: human KOR (Homo sapiens)
Please reply with the bare figure in nM and do not write the unit itself.

Which Ki reading was recorded for the molecule Cc1cc(O)cc(C)c1C[C@H](N)C(=O)N1CCc2ccc(CN3CCCc4ccccc43)cc2C1 ?
7.1

Same read-out for COc1cccc(Cc2ccc3c(c2)CN(C(=O)[C@@H](N)Cc2c(C)cc(O)cc2C)CC3)c1 ?
3

###

Record type: pKi measurement. Applies to: human KOR (Homo sapiens)
On this scale, pKi is minus log10 of a concentration expressed in M (mol/L).

compound | quantity kind | quantitative readout
Cc1cc(O)cc(C)c1C[C@H](N)C(=O)N1CCc2ccc(CN3CCOCC3)cc2C1 [Compound 8n] | pKi | 7.37
Cc1cc(O)cc(C)c1C[C@H](N)C(=O)N1CCc2ccc(Cc3ccc4ccccc4c3)cc2C1 [Compound 8p] | pKi | 6.85
Cc1cc(O)cc(C)c1C[C@H](N)C(=O)N1CCc2ccc(Cc3cccnc3)cc2C1 [Compound 8j] | pKi | 7.25

Which pKi reading was recorded for the compound Cc1cc(O)cc(C)c1C[C@H](N)C(=O)N1CCc2ccc(CN3Cc4ccccc4C3)cc2C1 [Compound 8z] ?
7.19

Same read-out for Cc1cccc(Cc2ccc3c(c2)CN(C(=O)[C@@H](N)Cc2c(C)cc(O)cc2C)CC3)c1C [Compound 8i] ?
8.24

###

test system: human MOR (Homo sapiens)
quantity kind: Ki (nM)
Please reply with the bare figure in nM and do not write the unit itself.

smiles code | test system | Ki (nM)
Cc1cc(O)cc(C)c1C[C@H](N)C(=O)N1CCc2ccc(CN3CCCCC3)cc2C1 | human MOR (Homo sapiens) | 4.7
Cc1cc(O)cc(C)c1C[C@H](N)C(=O)N1CCc2ccc(CN3CCCc4ccccc43)cc2C1 | human MOR (Homo sapiens) | 7.2
Cc1cccc(Cc2ccc3c(c2)CN(C(=O)[C@@H](N)Cc2c(C)cc(O)cc2C)CC3)c1C | human MOR (Homo sapiens) | 5.2

We now examine a further compound.
Which Ki reading was recorded for the compound Cc1cc(O)cc(C)c1C[C@H](N)C(=O)N1CCc2ccc(Cc3cccnc3)cc2C1 ?
5.4

###

test system: human DOR (Homo sapiens, UniProt P41143)
Construct: expressed in transfected cells; cell lines provided by Professor Lawrence Toll
assay text: [35S]-GTPγS binding stimulation, DOR
Assay type: biochemical
study conditions: CHO-human DOR membranes; mean (SEM); * n = 2; dns = does not stimulate, average maximal stimulation <10% at up to 10 µM
quantity kind: EC50 DOR

Please review the entries below; each comes with its answer.
smiles code | EC50 DOR
Cc1cc(O)cc(C)c1C[C@H](N)C(=O)N1CCc2ccc(Cc3cccnc3)cc2C1 | dns
Cc1cccc(Cc2ccc3c(c2)CN(C(=O)[C@@H](N)Cc2c(C)cc(O)cc2C)CC3)c1C | dns *
Cc1cc(O)cc(C)c1C[C@H](N)C(=O)N1CCc2ccc(Cc3cccc4ncccc34)cc2C1 | dns *
Cc1cc(O)cc(C)c1C[C@H](N)C(=O)N1CCc2ccc(Cc3ccccc3O)cc2C1 | dns *
Cc1cc(O)cc(C)c1C[C@H](N)C(=O)N1CCc2ccc(CN3CCCCC3)cc2C1 | dns

Which EC50 DOR reading was recorded for the compound Cc1cc(O)cc(C)c1C[C@H](N)C(=O)N1CCc2ccc(Cc3ccnc4ccccc34)cc2C1 ?
dns *

Same read-out for Cc1cc(O)cc(C)c1C[C@H](N)C(=O)N1CCc2ccc(CN3CCCC3)cc2C1 ?
dns *

Same read-out for Cc1cc(O)cc(C)c1C[C@H](N)C(=O)N1CCc2ccc(CN3CCc4ccccc43)cc2C1 ?
dns *

Same read-out for Cc1cc(O)cc(C)c1C[C@H](N)C(=O)N1CCc2ccc(Cc3cccc4ccncc34)cc2C1 ?
dns *

Same read-out for Cc1cc(O)cc(C)c1C[C@H](N)C(=O)N1CCc2ccc(CN3CCOCC3)cc2C1 ?
dns

Same read-out for Cc1cc(O)cc(C)c1C[C@H](N)C(=O)N1CCc2ccc(Cc3ccccc3C#N)cc2C1 ?
dns

Same read-out for Cc1cc(O)cc(C)c1C[C@H](N)C(=O)N1CCc2ccc(Cc3cccc(C(F)(F)F)c3)cc2C1 ?
dns

Same read-out for Cc1cc(O)cc(C)c1C[C@H](N)C(=O)N1CCc2ccc(Cc3cccc4cnccc34)cc2C1 ?
dns

Same read-out for Cc1cc(O)cc(C)c1C[C@H](N)C(=O)N1CCc2ccc(Cc3ccncc3)cc2C1 ?
dns
